Where do these numbers come from? They come from ChEMBL document CHEMBL3046399.

- System: Mus musculus
- experimental.details: Analgesic activity in Mus musculus Swiss albino (mouse) assessed as protection against acetic acid-induced writhing response at 20 mg/kg, po administered 30 min prior to acetic acid challenge measured at 2 hr relative to control
- Assay type: functional
# note: exactly 60% is not below, so it is NO; use YES for Activity strictly under it

## Input Decide: Activity of O=c1oc2ccc(Br)cc2cc1-c1cc(-c2c(Cl)cccc2Cl)nc(NCN2CCOCC2)n1 strictly below 60%?
## Output NO

## Input Decide: Activity of COc1ccccc1-c1cc(-c2cc3cc(Br)ccc3oc2=O)nc(NCN2CCCCC2)n1 strictly below 60%?
## Output YES

## Input Decide: Activity of O=c1oc2ccc(Br)cc2cc1-c1cc(-c2ccc(Br)cc2)nc(NCN2CCOCC2)n1 strictly below 60%?
## Output YES

## Input Decide: Activity of O=c1oc2ccc(Br)cc2cc1-c1cc(-c2cccc(Br)c2)nc(NCN2CCCCC2)n1 strictly below 60%?
## Output YES

## Input Decide: Activity of O=c1oc2ccc(Br)cc2cc1-c1cc(-c2ccc(Cl)cc2)nc(NCN2CCOCC2)n1 strictly below 60%?
## Output YES

* * *

- Tested on: Mus musculus
- experimental.details: Analgesic activity in Mus musculus Swiss albino (mouse) assessed as protection against acetic acid-induced writhing response at 20 mg/kg, po administered 30 min prior to acetic acid challenge measured at 2 hr relative to control
- Type: functional
reported.metric: Activity (%)
Write the number in % without appending the unit.

## Input // lookup Activity for O=c1oc2ccc(Br)cc2cc1-c1cc(-c2cccc(Br)c2)nc(NCN2CCOCC2)n1
## Output 47.42

## Input // lookup Activity for O=c1oc2ccc(Br)cc2cc1-c1cc(-c2ccc(Cl)cc2)nc(NCN2CCCCC2)n1
## Output 61.86

## Input // lookup Activity for O=c1oc2ccc(Br)cc2cc1-c1cc(-c2ccccc2Br)nc(NCN2CCOCC2)n1
## Output 47.94

## Input // lookup Activity for COc1ccccc1-c1cc(-c2cc3cc(Br)ccc3oc2=O)nc(NCN2CCOCC2)n1
## Output 37.61

## Input // lookup Activity for O=c1oc2ccc(Br)cc2cc1-c1cc(-c2ccc(Cl)cc2Cl)nc(NCN2CCCCC2)n1
## Output 38.14

* * *

- Test system: Mus musculus
- experimental.details: Analgesic activity in Mus musculus Swiss albino (mouse) assessed as protection against acetic acid-induced writhing response at 20 mg/kg, po administered 30 min prior to acetic acid challenge measured at 2 hr relative to control
- Assay type: functional
Kindly state Activity for each of the entries shown.

## Input // lookup Activity for COc1cccc(-c2cc(-c3cc4cc(Br)ccc4oc3=O)nc(NCN3CCCCC3)n2)c1
## Output 35.05%

## Input // lookup Activity for COc1cccc(-c2cc(-c3cc4cc(Br)ccc4oc3=O)nc(NCN3CCOCC3)n2)c1
## Output 47.42%

## Input // lookup Activity for O=c1oc2ccc(Br)cc2cc1-c1cc(-c2ccccc2Br)nc(NCN2CCCCC2)n1
## Output 15.47%

## Input // lookup Activity for O=c1oc2ccc(Br)cc2cc1-c1cc(-c2c(Cl)cccc2Cl)nc(NCN2CCCCC2)n1
## Output 15.47%

## Input // lookup Activity for O=c1oc2ccc(Br)cc2cc1-c1cc(-c2cccc(Cl)c2)nc(NCN2CCCCC2)n1
## Output 51.53%

## Input // lookup Activity for O=c1oc2ccc(Br)cc2cc1-c1cc(-c2ccccc2Cl)nc(NCN2CCCCC2)n1
## Output 52.06%

## Input // lookup Activity for O=C([O-])Cc1ccccc1Nc1c(Cl)cccc1Cl.[Na+] [DICLOFENAC SODIUM]
## Output 84.53%

## Input // lookup Activity for O=c1oc2ccc(Br)cc2cc1-c1cc(-c2cccc(Cl)c2)nc(NCN2CCOCC2)n1
## Output 40.71%

## Input // lookup Activity for O=c1oc2ccc(Br)cc2cc1-c1cc(-c2ccccc2Cl)nc(NCN2CCOCC2)n1
## Output 64.43%

## Input // lookup Activity for O=c1oc2ccc(Br)cc2cc1-c1cc(-c2ccc(Cl)cc2Cl)nc(NCN2CCOCC2)n1
## Output 69.6%

## Input // lookup Activity for O=c1oc2ccc(Br)cc2cc1-c1cc(-c2ccc(Br)cc2)nc(NCN2CCCCC2)n1
## Output 32.47%
